Experimental Target: Fibroblast growth factor 2 (Homo sapiens)
Protocol Details: FGF2 binders on small-molecule microarrays, primary screen, biochemical, small-molecule microarray, 635/667 nm fluorescence (AID 1133)
Setup Conditions: small-molecule microarray binding, FGF2, fluorescence 635/667; higher = more signal
Measured Metric: composite z-score

Some entries whose results are on file:
Compound	composite z-score
[N-]=[N+]=NCc1ccccc1[C@H]1OC(c2ccc(OCCCO)cc2)=N[C@@]1(CCS(=O)(=O)c1ccccc1)C(=O)NCCN1CCOCC1	0.188
O=C(c1ccccc1)N1Cc2ccccc2C[C@@]2(N=C(c3ccc(OCCCO)cc3)O[C@H]2c2ccccc2)C1=O	1.44
C=CCNC(=O)[C@@H]1[C@H]2C(=O)O[C@H](c3ccccc3)[C@H](c3ccccc3)N2[C@H](c2ccc(OCCO)cc2)[C@@]12C(=O)Nc1ccc(C#CCNC(N)=O)cc12	-0.187
COCCOC(=O)N1C(=O)[C@@]2(c3cc(C#CCCO)ccc31)[C@H](c1ccc(O)cc1)N1[C@H](c3ccccc3)[C@H](c3ccccc3)OC(=O)[C@H]1[C@@H]2C(=O)NC[C@H](O)c1ccccc1	0.767

Exercise: # lookup: composite z-score of CC(C)N1C(=O)[C@@]2(Cc3ccccc31)c1ccccc1C(=O)N(Cc1ccccc1C(F)(F)F)[C@H]2c1ccc(CO)cc1
Key: 1.18

Exercise: Field request: composite z-score | item: O=C(NC1CC1)[C@@H]1c2ccccc2C(=O)N(C2CCCCC2)[C@H]1c1ccc(CO)cc1
Key: -0.027

Exercise: Returns the measured composite z-score for the input compound. Input: COc1ccc(C(=O)Nc2ccc(CN3C(=O)[C@@]4(O[C@@H](CC(=O)N(CCO)Cc5ccccc5)[C@H]([Si](C)(C)c5ccc(OC)cc5)[C@H]4C)c4ccccc43)cc2)cc1
Key: 0.936

Exercise: Which composite z-score value is on record for COC(=O)[C@H](Cc1ccccc1)N1CC(C)(OC)O[C@@H](Cc2ccccc2)[C@H]1/C=C/C1CC1 (stereo not given in full) ?
Key: 0.0959

Exercise: Requested field: composite z-score. Item: COCCCNC(=O)[C@]1(Cc2ccccc2CN=[N+]=[N-])N=C(c2ccc(OCCCO)cc2)O[C@@H]1c1ccccc1N=[N+]=[N-]
Key: 0.854

Exercise: Reported composite z-score, compound COc1cc2c(cc1OC)CN(C(=O)[C@@H]1[C@H]3C(=O)O[C@H](c4ccccc4)[C@H](c4ccccc4)N3[C@H](c3ccc(O)cc3)[C@@]13C(=O)Nc1ccc(C#CC4=CCCCC4)cc13)CC2 : ____
Key: 0.493
